Test: Metabolic stability in human HT29 cells bearing mouse plasma at 20 MBq, iv after 10 mins
Format: ADME, organism-based, HT-29
Conditions: read-out: Stability
Value type: remaining at 10 min (%)
One number for each entry, in %.

// remaining at 10 min value for CS(=O)(=O)c1ccc(C2=C(c3ccc(O[11CH3])cc3)CCC2)cc1 : 17

----------
Assay: Metabolic stability in Wistar rat plasma at 30 MBq, iv after 1 min
Format: ADME, organism-based
Settings: read-out: Stability
Value type: remaining at 1 min (%)
One number for each entry, in %.

Entry CS(=O)(=O)c1ccc(C2=C(c3ccc(O[11CH3])cc3)CCC2)cc1 ; remaining at 1 min = 97

----------
Assay: Metabolic stability in human HT29 cells bearing mouse plasma at 20 MBq, iv after 5 mins
Type: ADME, organism-based, HT-29
Settings: read-out: Stability
Value type: remaining at 5 min (%)
Answers are plain numbers, in %.

CS(=O)(=O)c1ccc(C2=C(c3ccc(O[11CH3])cc3)CCC2)cc1 yielded remaining at 5 min of 40

----------
Assay: Metabolic stability in human HT29 cells bearing mouse plasma at 20 MBq, iv after 20 mins
Format: ADME, organism-based, HT-29
Settings: read-out: Stability
Value type: remaining at 20 min (%)
Give bare numbers, in %.

Quick note, remaining at 20 min for CS(=O)(=O)c1ccc(C2=C(c3ccc(O[11CH3])cc3)CCC2)cc1 landed at 8

----------
Experiment: Metabolic stability in human HT29 cells bearing mouse plasma at 20 MBq, iv after 60 mins
Assay type: ADME, organism-based, HT-29
Conditions: read-out: Stability
Value type: remaining at 1 h (%)
One number for each entry, in %.

// field: remaining at 1 h; key: CS(=O)(=O)c1ccc(C2=C(c3ccc(O[11CH3])cc3)CCC2)cc1 ; value = 2

----------
Experiment: Metabolic stability in Wistar rat plasma at 30 MBq, iv after 60 mins
Assay type: ADME, organism-based
Details: read-out: Stability
Value type: remaining at 1 h (%)
One number for each entry, in %.

Field remaining at 1 h (entry CS(=O)(=O)c1ccc(C2=C(c3ccc(O[11CH3])cc3)CCC2)cc1 ) reads 18

----------
Assay: Metabolic stability in human HT29 cells bearing mouse plasma at 20 MBq, iv after 1 min
Assay type: ADME, organism-based, HT-29
Details: read-out: Stability
Value type: remaining at 1 min (%)
Give bare numbers, in %.

remaining at 1 min measured on CS(=O)(=O)c1ccc(C2=C(c3ccc(O[11CH3])cc3)CCC2)cc1 = 95

----------
Experiment: Metabolic stability in Wistar rat plasma at 30 MBq, iv after 10 mins
Assay type: ADME, organism-based
Conditions: read-out: Stability
Value type: remaining at 10 min (%)
Answers are plain numbers, in %.

# remaining at 10 min (molecule: CS(=O)(=O)c1ccc(C2=C(c3ccc(O[11CH3])cc3)CCC2)cc1 ) is 35
